The measured values listed here are drawn from paper PMC7803741.

study_system: T1, GABARAPL1 (mouse, UniProt Q8R3R8 1-117)
T1 construct: GABARAPL1, mouse, UniProt Q8R3R8; source: E. coli BL21 (DE3), purified (nickel-NTA, size exclusion)
T1 sequence (Q8R3R8 whole entry): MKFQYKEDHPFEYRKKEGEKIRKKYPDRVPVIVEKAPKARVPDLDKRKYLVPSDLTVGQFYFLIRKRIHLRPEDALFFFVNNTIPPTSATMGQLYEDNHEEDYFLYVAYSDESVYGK
procedure_text: ITC; VP-ITC, 25 °C; 50 mM Tris pH 7.8, 100 mM NaCl, 1 mM EDTA, 1 mM DTT; γ2 subunit protein or peptide (100–200 μM) injected into GABARAP, GABARAPL1 or AP2 (10–20 μM) in the cell; one-site binding model
assay_context: both partners purified
measurement_label: Kd

Q. Reported Kd for ERDEEYGYECLDGKDCAS (peptide, UniProt P22723-2 398-415, looked up, also called γ2-GIM; source: E. coli BL21 (DE3), purified (nickel-NTA, size exclusion)) [GABAAR γ2 subunit GIM (GABARAP interacting motif, 398–415)] : what is it?
A. ~6.6 µM
